System: Mycoplasma hyorhinis
Experiment: Antimicrobial test, conventional agar plate dilution method, Mycoplasma hyorhinis
Format: cell-based
Settings: Mycoplasma, read-out: Minimum Inhibitory Concentration, Mycoplasma hyorhinis
The entries below are paired with their reported MIC.

Completed entries (count: 3):
Cc1cc(CSC(=S)N2CCCCC2)cc(C(C)(C)C)c1O [compound 207] = 0.1 µg/mL
Oc1c(Cl)cc(CSC(=S)N2CCOCC2)cc1Cl [compound 235] = 1.56 µg/mL
Cc1ccccc1C(=O)CCSC(=S)N(C)C [compound 57] = 0.1 µg/mL

**Query** Consider the compound CCN(CC)C(=S)SCC(C)C(C)=O (stereo not shown) [compound 148, 2-Acetylpropyl diethyldithiocarbamate] and give its measured MIC.
**Result** 0.05 µg/mL

**Query** What MIC value was documented for this compound, CC(=O)CCSC(=S)N1CCCCCC1 [compound 89] ?
**Result** 0.1 µg/mL

**Query** Can you share its MIC? I mean this compound: CN(C)C(=S)SCc1oc(CO)cc(=O)c1O [compound 254]
**Result** 0.39 µg/mL

**Query** // MIC lookup, key: CCN(CC)C(=S)SCc1cc(CO)cc(OC)c1O [compound 242]
**Result** 0.1 µg/mL

**Query** For CN(C)C(=S)SCCC(=O)c1cccnc1 [compound 69] , what is its reported MIC?
**Result** 0.1 µg/mL

**Query** Could you tell me which MIC is on file for CCN(CC)C(=S)SCCC(=O)c1ccccc1 [compound 24, 2-Benzoylethyl diethyldithiocarbamate] ?
**Result** 0.39 µg/mL

**Query** Entry CC(=O)C(C)CSC(=S)N(C)C (stereo not shown) [Compound No. 147, 2-Acetylpropyl dimethyldithiocarbamate] : reported MIC = ?
**Result** 0.05 µg/mL

Recorded values, source patent US4076814A.
